Quick reference for IC50 among some compounds
# subject_of_test: LCK (Homo sapiens, UniProt P06239)
# Sequence (P06239 whole entry): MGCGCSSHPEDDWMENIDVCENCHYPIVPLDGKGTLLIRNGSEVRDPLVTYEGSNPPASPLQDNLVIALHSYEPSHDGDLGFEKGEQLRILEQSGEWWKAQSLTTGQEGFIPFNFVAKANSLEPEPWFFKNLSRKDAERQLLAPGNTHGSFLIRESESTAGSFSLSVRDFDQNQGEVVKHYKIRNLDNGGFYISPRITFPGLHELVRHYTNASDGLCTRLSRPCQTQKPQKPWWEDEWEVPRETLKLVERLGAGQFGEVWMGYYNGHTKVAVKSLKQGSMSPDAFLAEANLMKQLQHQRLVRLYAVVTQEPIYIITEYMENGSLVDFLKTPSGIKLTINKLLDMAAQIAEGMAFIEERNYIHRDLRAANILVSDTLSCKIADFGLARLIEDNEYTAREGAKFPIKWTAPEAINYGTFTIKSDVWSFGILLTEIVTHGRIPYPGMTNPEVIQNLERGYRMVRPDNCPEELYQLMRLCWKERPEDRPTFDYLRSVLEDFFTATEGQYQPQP
# experimental_protocol: Inhibition of a panel of kinases, in vitro HotSpot kinase assay: LCK
# Format: biochemical
# condition_description: D-compounds panel data; 1 μM ATP; read-out: IC50 LCK

Reference set (6 entries):
C[C@@H]1[C@H](NC(=O)c2ccc(C3CC3)cc2F)CCCN1c1cnc(C(N)=O)c(Nc2ccc(C3(C)CCN(C4CCC4)CC3)cc2)n1	10 to 100 nM
CN1CCN(c2ccc(Nc3cc(N4CCC[C@@H](n5ccc6cc(C7CC7)ccc6c5=O)C4)cnc3C(N)=O)cc2)CC1	1000 to 10000 nM
C[C@@H]1[C@H](NC(=O)c2ccc(N(C)CCO)cc2)CCCN1c1cnc(C(N)=O)c(Nc2cnn(C)c2)n1	100 to 1000 nM
CN(C)C(=O)N[C@@H]1CCCN(c2cnc(C(N)=O)c(Nc3ccc(C4(C)CCN(C5CCCC5)CC4)cc3)n2)[C@H]1CO	1000 to 10000 nM
C[C@@H]1[C@H](NC(=O)c2ccc3c(c2)OC(F)(F)O3)CCCN1c1cnc(C(N)=O)c(Nc2cnn(C)c2)n1	100 to 1000 nM
C[C@@H]1[C@H](NC(=O)N(C)C)CCCN1c1cnc(C(N)=O)c(Nc2ccc(C(=O)N3CCN(C)CC3)cc2)n1	100 to 1000 nM

stdin: // fetch LCK (Homo sapiens, UniProt P06239) IC50 for "C[C@@H]1[C@H](N2Cc3cc(Br)ccc3C2=O)CCCN1c1cnc(C(N)=O)c(Nc2cnn(C)c2)n1"
stdout: 100 to 1000 nM
